Catalogue of EC50 readings, one per entry.
- Test system: NF-κB pathway in THP1-Dual STING reporter cells
- MEASUREMENT_DESCRIPTION: STING THP1 Reporter Assay, NF-κB pathway (SEAP)
- Assay type: cell-based, human
- TEST_CONDITIONS: read-out: THP1 Reporter Assays EC50 (μM) NFkB; THP1-Dual cells, 10% human plasma, 20 hours, SEAP; 100% = 100 μM cGAMP
MEASURED_PROPERTY: EC50 (µM)

1) Nc1ncnc2c1ncn2[C@@H]1O[C@@H]2COP(=O)(S)O[C@H]3[C@@H](F)[C@H](n4cnc5c4ncn4ccnc54)O[C@@H]3COP(=O)(S)O[C@H]2[C@H]1F (single isomer, unassigned) [Example 21-1] | 34.6
2) Nc1ncnc2c1ncn2[C@@H]1O[C@@H]2COP(=O)(S)O[C@H]3[C@@H](F)[C@H](n4cnc5c4ncn4ccnc54)O[C@@H]3COP(=O)(S)O[C@H]2[C@H]1F (single isomer, unassigned) [Example 21-4] | 0.67

====

Catalogue of EC50 readings, one per entry.
- Test system: IRF pathway in THP1-Dual STING reporter cells
- MEASUREMENT_DESCRIPTION: STING THP1 Reporter Assay, IRF pathway (secreted Lucia luciferase)
- Format: cell-based, human
- TEST_CONDITIONS: THP1-Dual cells, 10% human plasma, 20 hours, luciferase; 100% = 100 μM cGAMP; read-out: THP1 Reporter Assays EC50 (μM) IRF3
- Description: THP1-Dual™ cells were derived from the human THP-1 monocyte cell line by stable integration of two inducible reporter constructs. […] Both reporter proteins are readily measurable in the cell culture supernatant when using QUANTI-Blue™, a SEAP detection reagent, and QUANTI-Luc™, a luciferase detection reagent. […]
MEASURED_PROPERTY: EC50

1. NC(=O)c1cccc2c1nnn2[C@@H]1O[C@@H]2COP(=O)(O)O[C@H]3[C@@H](F)[C@H](n4cnc5c(N)ncnc54)O[C@@H]3COP(=O)(S)O[C@H]2[C@H]1F (single isomer, unassigned) | > 100 µM
2. Nc1ncnc2c1ncn2[C@@H]1O[C@@H]2COP(=O)(S)O[C@H]3[C@@H](O)[C@H](n4cnc5c(=O)n6ccnc6[nH]c54)O[C@@H]3COP(=O)(S)O[C@H]2[C@H]1F (single isomer, unassigned) [Example 1-1] | 0.38 µM
3. Nc1ncnc2c1ncn2[C@@H]1O[C@@H]2COP(=O)(S)O[C@H]3[C@@H](O)[C@H](n4cnc5c(=O)n6ccnc6[nH]c54)O[C@@H]3COP(=O)(S)O[C@H]2[C@H]1F (single isomer, unassigned) [Example 1-2] | 2.69 µM
4. NC(=O)c1cc([C@@H]2O[C@@H]3COP(=O)(S)O[C@H]4[C@@H](F)[C@H](n5cnc6c(N)ncnc65)O[C@@H]4COP(=O)(S)O[C@H]3[C@H]2O)[nH]n1 (single isomer, unassigned) [Example 6-3] | > 100 µM
5. NC(=O)c1cccc2c1nnn2[C@@H]1O[C@@H]2COP(=O)(S)O[C@H]3[C@@H](F)[C@H](n4cnc5c(N)ncnc54)O[C@@H]3COP(=O)(S)O[C@H]2[C@H]1F (single isomer, unassigned) [Example 4-3] | > 100 µM
6. NC(=O)c1cccc2c1nnn2[C@@H]1O[C@@H]2COP(=O)(S)O[C@H]3[C@@H](F)[C@H](n4cnc5c(N)ncnc54)O[C@@H]3COP(=O)(S)O[C@H]2[C@H]1F (single isomer, unassigned) [Example 4-1] | > 100 µM
7. NC(=O)c1cc([C@@H]2O[C@@H]3COP(=O)(S)O[C@H]4[C@@H](F)[C@H](n5cnc6c(N)ncnc65)O[C@@H]4COP(=O)(S)O[C@H]3[C@H]2O)[nH]n1 (single isomer, unassigned) [Example 6-2] | > 100 µM
8. NC(=O)c1cc([C@@H]2O[C@@H]3COP(=O)(S)O[C@H]4[C@@H](F)[C@H](n5cnc6c(N)ncnc65)O[C@@H]4COP(=O)(S)O[C@H]3[C@H]2O)[nH]n1 (single isomer, unassigned) [Example 6-4] | > 100 µM
9. NC(=O)c1cccc2c1nnn2[C@@H]1O[C@@H]2COP(=O)(S)O[C@H]3[C@@H](F)[C@H](n4cnc5c(N)ncnc54)O[C@@H]3COP(=O)(S)O[C@H]2[C@H]1F (single isomer, unassigned) [Example 4-4] | 81.1 µM
